Measured EC50 of individual entries
- studyTarget: T1, Recombinant His-tagged human CD36.ECD protein (Sino Biological) (human, UniProt P16671 30-439)
- T1 construct: Bought protein; also called hCD36.ECD; hCD36; not shown: His tag
- T1 sequence (P16671 30-439 limits assumed): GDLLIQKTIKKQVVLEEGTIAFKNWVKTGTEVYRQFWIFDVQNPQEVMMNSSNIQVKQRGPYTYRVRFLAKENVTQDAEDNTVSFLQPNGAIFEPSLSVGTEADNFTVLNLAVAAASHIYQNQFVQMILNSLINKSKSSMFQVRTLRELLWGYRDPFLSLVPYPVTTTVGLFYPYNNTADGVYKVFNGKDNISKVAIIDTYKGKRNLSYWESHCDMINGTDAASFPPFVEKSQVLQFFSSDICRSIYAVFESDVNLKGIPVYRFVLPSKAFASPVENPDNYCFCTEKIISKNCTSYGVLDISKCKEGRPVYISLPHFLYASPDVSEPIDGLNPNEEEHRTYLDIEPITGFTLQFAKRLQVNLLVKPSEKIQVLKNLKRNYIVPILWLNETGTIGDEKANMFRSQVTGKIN
- assayNotes: ELISA, coated human CD36.ECD (FIG. 2F)
valueKind: EC50 (nM)

* 117_AA57E (antibody, V domains shown, full-length IgG, human kappa) VH: EVQLVESGGGLVQPGGSLRLSCAASGFTIAAFGIHWVRQAPGKGLEWVAWIAPYGGETYYADSVKGRFTISADTSKNTAYLQMNSLRAEDTAVYYCARSFFGYFDYWGQGTLVTVSS VL: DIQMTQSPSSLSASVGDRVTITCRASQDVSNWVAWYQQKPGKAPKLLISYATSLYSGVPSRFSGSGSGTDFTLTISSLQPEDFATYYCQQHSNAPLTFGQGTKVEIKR | 0.251
* 117_57E (antibody, V domains shown, full-length IgG, human kappa) VH: EVQLVESGGGLVQPGGSLRLSCAASGFTISSFGIHWVRQAPGKGLEWVAWIAPYGGETYYADSVKGRFTISADTSKNTAYLQMNSLRAEDTAVYYCARSFFGYFDYWGQGTLVTVSS VL: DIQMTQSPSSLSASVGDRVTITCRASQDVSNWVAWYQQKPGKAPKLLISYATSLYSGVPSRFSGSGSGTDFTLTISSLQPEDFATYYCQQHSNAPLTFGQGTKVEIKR | 0.206
* 117_AA57D (antibody, V domains shown, full-length IgG, human kappa) VH: EVQLVESGGGLVQPGGSLRLSCAASGFTIAAFGIHWVRQAPGKGLEWVAWIAPYGGDTYYADSVKGRFTISADTSKNTAYLQMNSLRAEDTAVYYCARSFFGYFDYWGQGTLVTVSS VL: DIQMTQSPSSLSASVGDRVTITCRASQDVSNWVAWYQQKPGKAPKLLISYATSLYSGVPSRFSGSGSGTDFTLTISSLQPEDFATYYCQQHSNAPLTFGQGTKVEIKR | 0.192
